testedTarget: Trx-6×His-BCL6 (human BCL6 BTB domain covering amino-acid sequence 5-129) (Homo sapiens (Human))
measurementProtocol: HTRF in vitro assay (BCL6 / BCOR-AF633 peptide)
Type: binding
studyConditions: further generated data; 1 nM Trx-6×His-BCL6, 300 nM BCOR-AF633 peptide, 0.5 nM anti-6×His-Terbium cryptate
Measured HTRF pIC50 by item
measurementLabel: HTRF pIC50

> print(dat)
                                    compound  reported
 1  COC(=O)C(C)CCn1c(=O)n(C)c2ccc(Nc3nc(C)ncc3Cl)cc21 (stereo not shown)      5.37
 2  CNC(=O)c1cc(Nc2ccc3c(c2)n(CCC(C)C(=O)OC)c(=O)n3C)c(C#N)c(Cl)n1 (stereo not shown)      6.09
 3  CCC(C)(O)CCn1c(=O)n(C)c2ccc(Nc3nc(Cl)ncc3Cl)cc21 (stereo not shown) [Example 22g]      5.27
 4  Cn1c(=O)n(CCC(C)(C)O)c2cc(Nc3nc(N4C[C@@H](F)[C@@H](F)C4)ncc3Cl)ccc21 [Example 35h]      6.36
 5  CCOC(=O)c1cc(Nc2ccc3c(c2)n(CCC(C)(C)O)c(=O)n3C)n2nccc2n1      5.94
 6  C[C@@H]1C[C@H](C)CN(c2cc(Nc3ccc4c(c3)n(CCC(C)(C)O)c(=O)n4C)c(Cl)cn2)C1 [Example 36d]      5.48
 7  Cc1ccn(-c2ncc(Cl)c(Nc3ccc4c(c3)n(CCC(C)(C)O)c(=O)n4C)n2)n1 [Example 16a]      6.38
 8  CC(Cn1c(=O)n(C)c2ccc(Nc3ccnc(Cl)c3C#N)cc21)C(C)(C)O (stereo not shown) [Example 27e]      5.55
 9  COC(=O)CCCn1c(=O)n(C)c2ccc(Nc3ccnc(Cl)c3C#N)cc21 [Example 10d]      5.29
10  Cn1c(=O)n(CCC(C)(C)O)c2cc(Nc3nc(-c4cccs4)ncc3Cl)ccc21 [Example 23d]      5.62
11  Cn1c(=O)n(CCC(C)(C)O)c2cc(Nc3ccnc(Br)c3C#N)ccc21      5.82
12  CSc1ncc(Cl)c(Nc2ccc3c(c2)n(CCC(C)(C)O)c(=O)n3C)n1 [Example 22a]      6.19
13  Cn1c(=O)n(CCC(C)(C)O)c2cc(Nc3nc(N4CCCC4=O)ncc3Cl)ccc21 [Example 30b]      5.99
14  CCC1(Cn2c(=O)n(C)c3ccc(Nc4ccnc(Cl)c4C#N)cc32)CN(C)C(=O)O1 (stereo not shown) [Example 22e]      5.88
15  Cn1c(=O)n(CC2C[C@H](F)CN2CC(F)(F)F)c2cc(Nc3ccnc(Cl)c3C#N)ccc21 (stereo in doubt) [Example 25h]      5.55
16  Cn1c(=O)n(C[C@@H]2CCC[C@]2(C)O)c2cc(Nc3ccnc(Cl)c3C#N)ccc21 [Example 22n]      5.90
17  Cn1c(=O)n(CCC(C)(C)O)c2cc(Nc3nc(N4CCOC(CO)C4)ncc3Cl)ccc21 (stereo not shown) [Example 42j]      6.81
18  CCC(C)(O)CCn1c(=O)n(C)c2ccc(Nc3nc(N4CCC(C(=O)N(C)C)CC4)ncc3Cl)cc21 (stereo not shown) [Example 15l]      6.63
19  CCC(Cn1c(=O)n(C)c2ccc(Nc3ccnc(Cl)c3C#N)cc21)N(C)C (stereo not shown) [Example 25b]      5.34
20  Cn1c(=O)n(CC(O)C(C)(C)O)c2cc(Nc3ccnc(Cl)c3C#N)ccc21 (stereo not shown) [Example 10a]      5.93
21  Cc1cc(C)n(-c2cc(Nc3ccc4c(c3)n(CCC(C)(C)O)c(=O)n4C)c(Cl)cn2)n1 [Example 30a]      6.09
22  Cn1c(=O)n(CCC(C)(C)O)c2cc(Nc3nc(N4CCC(N5CCOCC5)CC4)ncc3Cl)ccc21 [Example 42h]      6.88

The measured values listed here are drawn from patent US12110286B2.
